- Target: T1, MEF2 (construct not stated) (human, UniProt Q02080 1-365, limits assumed)
- T1 construct: The actual construct is unknown; also called MEF2B
- T1 sequence: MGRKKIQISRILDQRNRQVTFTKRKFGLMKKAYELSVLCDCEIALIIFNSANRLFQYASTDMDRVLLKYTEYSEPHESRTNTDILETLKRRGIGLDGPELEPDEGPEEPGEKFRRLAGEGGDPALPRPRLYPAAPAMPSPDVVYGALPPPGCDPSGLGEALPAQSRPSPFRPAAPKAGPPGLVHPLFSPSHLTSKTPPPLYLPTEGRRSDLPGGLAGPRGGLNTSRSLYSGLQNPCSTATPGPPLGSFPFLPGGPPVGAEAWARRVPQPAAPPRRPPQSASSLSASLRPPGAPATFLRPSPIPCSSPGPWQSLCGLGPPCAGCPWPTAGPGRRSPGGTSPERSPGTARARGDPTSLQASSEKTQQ
- Test summary: assay not described at this place (description; probably the rounded form of 0.72 µM in paragraph 231)
Measured endpoint: pKd
FYI, pKd means -log10 of a concentration in mol per litre.

Req: // pKd lookup, key: RAVASTEVKQKLQEFLLSK (also called 19-mer peptide of HDAC9) [HDAC9 peptide RAVASTEVKQKLQEFLLSK (19 residues)]
Resp: 6.15
